Assay: yeast display, Sf9 membrane polyspecificity reagent, FACS + sequencing; frameworks hold sequencing errors

CHAIN: QVQLVESGGGLVQAGGSLRLSCAASGSTFYGYAMGWYRQAPGKERELVAAISSGGRTKYADSVKGRFTISRDTAKNTVYLQMNSLKPEDTAVYYCYVSYLVYRWKFGWSMDYWGQGTQVTLSS
polyreactivity (PSR sort gate): low polyreactivity

CHAIN: QVQLVESGGGLVQAGGSLRLSCAASGSIFVPYAMGWYRQAPGKERELVAAISSRGGRTYYADSVKGRFTISRDNAKNTVYLQMNSLKPEDTAVYYCNKTAGSHIPRLEYWGQGTQVTVSS
polyreactivity (PSR sort gate): low polyreactivity

CHAIN: QVQLVESGGGLVQAGGSHRLSCAASGFTIYGNAMGWYRQAPGKERELVAAISGSGGITYYADSVKGRFTISRDNAKNTVYLQMNSLKPEDTAVYYCAAEFWVSRSIWLYYYWGQGTQVTVSS
polyreactivity (PSR sort gate): high polyreactivity

CHAIN: QVQLVESGGGLVQAGGSLRLSCAASGRTFYRYAMGWYRQAPGKEREFVAAISNGGSNTRYADSVKGRFTISRDNATNTVYLQMNSLKPEDTAVYYCAASAYQHYNWGQGTQVTVSS
polyreactivity (PSR sort gate): high polyreactivity

CHAIN: QVQLVESGGGLVQAGGSLRLSCAASGFIFGTYAMGWYRPAPGKERELVAAITSGGSTYYADSVKGRFTISRDNAKNTVYLQMNSLKPEDTAVYYCAKYHWRLSFSRYPYDYWGQGTQVTVSS
polyreactivity (PSR sort gate): high polyreactivity

CHAIN: QVQLVESGGGLVQAGGSLRLSCAASGSTFCRNAMGWYRQAPGKERELVAAISRRGGSTYYADSVKGRFTISRDNAKNTVYLQMTSLKPEDTAVYYCYRDSSYKHNYDYWAQGTQVTVSS
polyreactivity (PSR sort gate): high polyreactivity

CHAIN: QVQLVESGGGLVQAGGSLRLSCAASGRIFKRYAMGWYRQAPGKERELVAAITSSGGRTYYADSVKGRFTISRDNAKNTVYLQMNSLKPEDTAVYYCNVDSANRDGYWGQGTQVTVSS
polyreactivity (PSR sort gate): high polyreactivity

CHAIN: QVQLVESGGGLVQAGGSLRLSCAASGSNLGNNDMGWYRQAPGKERQLVAAISRSDVSTFYADSVKGRFTISRDNAKNTVYLQMNSLKPEDTAVSSCAARTGRGDRTRRYYYWGQGTQVTVSS
polyreactivity (PSR sort gate): high polyreactivity

CHAIN: QVQLVESGGGLVQAGGSLRLSCAASGRIFAHNAMGWYRQAPGKERELVAAISSSDGSTYYADSVKGRFTISRDNAKNTVYLQMNSLKPEDTAVYYCAARGSPSKHHWYDYWGQGTQVTVSS
polyreactivity (PSR sort gate): low polyreactivity

CHAIN: QVQLVESGGGLVQAGGSLRLSCAASGSIFDSNAMGWYRQAPRQERELVAAISSGGNTNYADSVKGRFTISRDNAKNTVYLQMNSLKPDDTAVYYCARDTQLPHFYGRVSEYDYWGQGTQVTVSA
polyreactivity (PSR sort gate): low polyreactivity

CHAIN: QVQLVESGGGLVQAGGSLRLSCAASGSIFKVYAMGWYRQAPGKEREFVAAITSSDSNTNYADSVKGRFTISRDNAKNTVYLQMNSLKPEDTAVYYCNARIYTRRYVPHYGFNYWGQGTQVTVSS
polyreactivity (PSR sort gate): low polyreactivity

----------
Assay: yeast display, Sf9 membrane polyspecificity reagent, FACS + sequencing; frameworks hold sequencing errors

CHAIN: QVQLVESGGGLVQAGGSLRLSCAASGITFYVHAMGWYRQAPGKERELVASITWSGGSTYYADSVKGRFTISRDNAKNTVYLQMNSLKPEDTAVYYCAHVLYRAYEYWGQGTQVTVSS
polyreactivity (PSR sort gate): low polyreactivity

CHAIN: QVQLVESGGGLVQAGGSLRLSCAASGRIFSYNAMGWYRQAPGKERELVASISYSGTSTYYADSVKGRFTISRDNAKKTVYLQMNSLKPEDTAVYYCAALSRRRFGYWGQGTQVTVSS
polyreactivity (PSR sort gate): high polyreactivity

CHAIN: QVQLVESGGGLVQAGGSLRLSCAASGIIIDSNAMGWYRQAPGKERELVADITSGGSTKYADSVKGRFTISRDNAKNTVYLQMNSLKPEDTAVYYCNADFRPADQWSYFYEMDSWGQGTQVTVSS
polyreactivity (PSR sort gate): low polyreactivity

CHAIN: QVQLVESGGGLVQAGGSLRLSCAASASILVRYAMVCYRQAPGKKREMVSAITATSGGTYYADSVKGRFTFSLDNAKNTVYLQMYSLKPEDTAVYYCNADGGSGAYLDLTITDYDYWGQGTQVTVSS
polyreactivity (PSR sort gate): low polyreactivity

CHAIN: QVQLVESGGGLVQAGGSLRLSCAASGFILKPYAMGWYRQAPWKERELVAAITYSGSSTYYADSVKGRFTISRDNAKNTVYLQMNSLKPEDTAVYYCAARDWSHPRRLFYWGQGTQVTVSS
polyreactivity (PSR sort gate): high polyreactivity

----------
Test: yeast display, Sf9 membrane polyspecificity reagent, FACS + sequencing; frameworks hold sequencing errors

CHAIN: QVQLVESDGGLVQAGGSLRLSCAASGSTFTWNAMGWYRQAPGKERELVAAISGDGGSTYYADSVKGRFTISRDNAKNTVYLQMNSLKPEDTAVYYCAASSAHIYSYRYNYWGQGTQVTVSS
polyreactivity (PSR sort gate): low polyreactivity

CHAIN: QVQLLESGGGLVQSGGSLRLSCADSGNIFVTYAMGWYRQAPGKESELVAGITSSDDSTYYADSVKVRFTISLDNAKNTVYLQMNSLKPEDTAVYYCATYYWEVGIGQFYYWGQGTQVTVSS
polyreactivity (PSR sort gate): low polyreactivity

CHAIN: QVQLVESGGGLVQAGGSLPLSCAASGIIFSYNAKGWDRQAPGKERELDAAIRENGGSTYYADSVKGRFTISRDNAKNTVYLQMNSLKPEDTAGYYCAVATSYYAGYEYDYWGQGTQVTVSS
polyreactivity (PSR sort gate): low polyreactivity

CHAIN: QVQLVESGGGLVQAGGSLRLSCAASGSTFYVNTMGWYRQAPGKERELVAAITATGASTYYADSVKGRFTISRDNAKNTVYLQMNSLKPEDTAVYYCNVRLRIRSGYWGQGTQVTVSS
polyreactivity (PSR sort gate): high polyreactivity

CHAIN: QVQLVESGGGLVQAGGSLRLSSAASGRTFTYYAMGWYRQAPGTERELVAAISSGGRTDYADSVKGRFTISRDNAKNTVYLQMNSLKPEDTAVYYCNARPKVYYREYDYWGQGNQVTVSS
polyreactivity (PSR sort gate): high polyreactivity

CHAIN: QVQLVESGGGLVQAGGRLRLSCAASGSIFRYYDMGWYRQATGKEREFVAAISYRGGTTYYADSVKGRFTISRDNAKNTVYLQMNSLKPEDTAVYYCAKETYRSSSYDWYDYWGQGTQVTVSS
polyreactivity (PSR sort gate): low polyreactivity

CHAIN: QVQLVESGGGLVQAGGSLRLSCAASGSIFSRNAMGWYRQAPGKERELVAGISTGGSTNYADSVKGRFTISRDNAKNTVYLQMNSLKPEDTAVYYCAAPLAYEGDDWGQGTQLTVSS
polyreactivity (PSR sort gate): low polyreactivity

CHAIN: QVQLVESGGRLVQAGGSLRLSCAASGFTFARYTMGWYRQAPGKERELVAAISSRGSSTYYADSVKWRFTISRDNAKNTVYLQMNSLKPEDTAVYYCGAPPRYGYDYWGQGTQVTVSS
polyreactivity (PSR sort gate): high polyreactivity

CHAIN: QVQLVESGGGLVQAGGSLRLSCAASGNTSVPYAMGWYRQAPGKERELVARITWSTGRTYYADSVKGRFTISRDNAKNTVYLQMNSLKPVDTAVYYCATEAWLPGSGGDYWGQVTQVTVSS
polyreactivity (PSR sort gate): low polyreactivity

CHAIN: QVQLVDSGGGLVQAGGSLRLSSAASGFTLLYNAMGSYRQAPGKERELVSTITGGGTTYADSVKGRFTISRDNAKNTVYLQMNSLKPEDTAVYYCATSRVWRLYRYLPQYRGYYYWGQGTQVTVSS
polyreactivity (PSR sort gate): high polyreactivity

CHAIN: QVQLVESGGGLVQAGGSLRLSSAASGRIFLRNALGWYRQAPGKERESVAAITRGGSTNYADSVKGRFTISRDNAKNTVYLQMNSLKPEDTAVYYCNARYPVVRYDYWGQGTQVTVSS
polyreactivity (PSR sort gate): high polyreactivity

----------
Experiment: yeast display, Sf9 membrane polyspecificity reagent, FACS + sequencing; frameworks hold sequencing errors
MEASURED_PARAMETER: polyreactivity (PSR sort gate)

CHAIN: QVQLVESGGGLVQAGGSLRLSCAASGSIFNYNAMGWYREAPRKERELVAAITWRGGTTSYADSVKGRFSISRDNAKNTVYLQMNSLKPEDTAVYYCNAYQWRHRYTMYYWGQGTQVTVSS
MEASURED_PARAMETER: polyreactivity (PSR sort gate)
RESULT: high polyreactivity

CHAIN: QVQLVESGGGLVQAGGSLRLSCAASGYIFHSYVMGWYRQAPGKERELVAAITSDDDSTFYADSVKGRFTISRDNAKNTVYLQMNSLKPEETGVYYCAADGYYQYDKDTYYSTSDYWGQGTQVTVSS
MEASURED_PARAMETER: polyreactivity (PSR sort gate)
RESULT: low polyreactivity

CHAIN: QVQLVESGGGLVQAGGSLSLSCAASGFTFYSYTMGWYRQAPGKDREMVAAISGRSVRTYYADSVKGRFTISRDNAKNTVYLQMNSLKPEDTAVYYCARAYYWRTSWYNYWGQGTQVTVSS
MEASURED_PARAMETER: polyreactivity (PSR sort gate)
RESULT: high polyreactivity

CHAIN: QVQLVESGGGLVQAGGSLRLSCAASGGTFRFNAMGWYRQAPGKERELVAAISRGGSTNYADSVKGRFTISRDNAKNTVYLQMNSLKPEDTAVYYCAADTYHPRFWYDYWGQGTQVTVSS
MEASURED_PARAMETER: polyreactivity (PSR sort gate)
RESULT: low polyreactivity

CHAIN: QVQLVESGGGLVQAGGSLPLSCAASGSIFTYYAMGSYRQAPGKEREFVAAISRRGGSTYYADSVKGRFTISRDNAKNTVYLQMNSLKPEDTAVYYCNARDTGSSLYYWGQGTQVTVSS
MEASURED_PARAMETER: polyreactivity (PSR sort gate)
RESULT: high polyreactivity

Recorded values, source the nanobody polyreactivity screen of Harvey et al. (2022).
